- ASSAY_INFO: Antioxidant activity assessed as DPPH free radical scavenging activity at 20 uM
- Assay type: physicochemical
MEASURE_NAME: Activity (%)

> print(dat)
                                smiles.text  measure.name  measurement
1  COc1cc(/C=C/c2cc(/C=C/c3ccc(O)c(OC)c3)n(-c3ccc([N+](=O)[O-])cc3[N+](=O)[O-])n2)ccc1O      Activity           78
2  COc1cc(/C=C/C(=O)C(=Cc2ccc(N(C)C)cc2)C(=O)/C=C/c2ccc(O)c(OC)c2)ccc1O      Activity         80.8
3  COc1cc(/C=C/c2cc(/C=C/c3ccc(O)c(OC)c3)n(C(N)=S)n2)ccc1O      Activity         82.1

The values you see were collected from ChEMBL document CHEMBL3763079.
